pIC50 reference
TARGET ENTITY: Phosphatidylinositol 4,5-bisphosphate 3-kinase catalytic subunit alpha isoform (Bos taurus)
Sequence (P32871 whole entry, canonical isoform): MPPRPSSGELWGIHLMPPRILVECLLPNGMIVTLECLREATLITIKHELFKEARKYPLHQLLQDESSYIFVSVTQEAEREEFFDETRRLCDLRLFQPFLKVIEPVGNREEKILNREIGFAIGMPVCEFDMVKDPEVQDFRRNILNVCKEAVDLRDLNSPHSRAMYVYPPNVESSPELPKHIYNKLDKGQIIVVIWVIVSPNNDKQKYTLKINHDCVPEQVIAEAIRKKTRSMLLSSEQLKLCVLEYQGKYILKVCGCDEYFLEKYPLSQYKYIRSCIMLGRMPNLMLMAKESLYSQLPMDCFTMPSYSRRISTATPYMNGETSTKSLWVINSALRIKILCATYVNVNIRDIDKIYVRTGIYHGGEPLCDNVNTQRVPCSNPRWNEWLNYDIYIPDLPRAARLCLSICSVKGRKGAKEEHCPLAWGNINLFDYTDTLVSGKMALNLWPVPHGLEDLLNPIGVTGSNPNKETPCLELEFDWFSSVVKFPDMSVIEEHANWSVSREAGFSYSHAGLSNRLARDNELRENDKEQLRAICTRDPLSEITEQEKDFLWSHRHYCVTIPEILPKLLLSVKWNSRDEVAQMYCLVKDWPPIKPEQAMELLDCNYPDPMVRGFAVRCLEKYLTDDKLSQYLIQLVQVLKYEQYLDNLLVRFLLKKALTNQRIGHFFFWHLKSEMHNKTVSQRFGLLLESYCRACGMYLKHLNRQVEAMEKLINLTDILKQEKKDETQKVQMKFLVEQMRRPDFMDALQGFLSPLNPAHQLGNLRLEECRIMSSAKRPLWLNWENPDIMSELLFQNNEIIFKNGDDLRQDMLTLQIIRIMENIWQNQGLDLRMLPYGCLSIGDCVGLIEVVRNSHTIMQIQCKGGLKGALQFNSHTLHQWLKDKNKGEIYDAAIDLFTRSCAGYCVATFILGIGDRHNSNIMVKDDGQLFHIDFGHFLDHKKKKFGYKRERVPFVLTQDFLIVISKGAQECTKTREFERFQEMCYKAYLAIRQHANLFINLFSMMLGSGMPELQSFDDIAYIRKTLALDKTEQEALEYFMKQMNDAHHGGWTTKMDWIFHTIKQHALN
TEST NAME: Inhibition of GST-tagged bovine PI3K p110-alpha by SPA
Schema: pIC50 number; meaning minus log10 of the concentration expressed in molar units.

Guide cases for pIC50, answers given:
| MOLECULE | pIC50 |
| --- | --- |
| Cc1ccc([N+](=O)[O-])cc1[S+]([O-])c1nc(-c2cnc3ccc(Cl)cn23)cs1 (configuration not stated) | 7.51 |
| Cc1ccc([N+](=O)[O-])cc1S(=O)(=O)n1ccc(-c2cnc3ccc(Cl)cn23)c1 | 7.00 |
| Cc1ccc([N+](=O)[O-])cc1S(=O)(=O)n1ccc(-c2cnc3ccc(Br)cn23)n1 | 8.74 |

IN: Name the recorded pIC50 for "Cc1nc2ccccn2c1-c1ccn(S(=O)(=O)c2ccc(F)cc2)n1" .
OUT: 6.17

IN: Which pIC50 reading was recorded for the molecule "Cc1nc2ccc(Cl)cn2c1-c1ccn(S(=O)(=O)c2cccc([N+](=O)[O-])c2)n1" ?
OUT: 6.55

IN: Which value of pIC50 has been reported for "Cc1ccc([N+](=O)[O-])cc1Sc1nc(-c2cnc3ccc(Cl)cn23)cs1" in the records?
OUT: 7.09

These data points were gathered from ChEMBL document CHEMBL1144502.
